# Assayed target: unphosphorylated VEGF-R2Δ50 (FLVK) (Homo sapiens, UniProt P35968, DEL940-989/E990V)
# Construct: VEGF-R2Δ50 contains residues 806-939 and 990-1171
# Sequence (P35968 with tags, fused parts or gaps DEL940-989/E990V limits assumed): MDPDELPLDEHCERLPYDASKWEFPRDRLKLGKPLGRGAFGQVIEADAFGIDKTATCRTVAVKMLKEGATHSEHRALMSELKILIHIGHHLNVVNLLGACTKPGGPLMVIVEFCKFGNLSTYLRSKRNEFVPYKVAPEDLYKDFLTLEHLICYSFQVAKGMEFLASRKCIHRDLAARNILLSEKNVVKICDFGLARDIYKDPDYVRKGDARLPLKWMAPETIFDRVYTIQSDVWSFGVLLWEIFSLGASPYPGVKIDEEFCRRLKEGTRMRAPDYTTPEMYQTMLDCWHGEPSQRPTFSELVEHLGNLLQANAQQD
# Assay overview: VEGF-R2 coupled spectrophotometric assay, unphosphorylated construct (FLVK)
compounds and their reported pKi
# pKi: negative log10 of molar concentration; output just the value

// query pKi value for entry CO[C@@H]1C[C@@H](CO)N(C(=O)c2cc3cccc(Nc4ccc5c(c4)cc(C)n5C(=O)NC4CC4)c3s2)C1
8.95

Param item: COC[C@@H]1CCCN1C(=O)c1cc2nccc(Oc3ccc4c(c3)cc(C)n4C(=O)NC3CC3)c2s1
9.89

Param item: CNC(=O)n1c(C)cc2cc(Oc3ccnc4cc(C(=O)N5CC(O)C5)sc34)ccc21
8.35

Param item: C#CCNC(=O)n1c(C)c(Cl)c2c(F)c(Oc3ccnc4cc(C(=O)N5CC[C@@H](OC)C5)sc34)ccc21
9.85

Param item: Cc1cc2c(F)c(Oc3ccnc4cc(C(=O)N5CCC[C@H]5CO)sc34)ccc2n1C(=O)NC1CC1
9.49

Param item: C#CCNC(=O)n1c(C)cc2cc(Oc3ccnc4cc(C(=O)N5CCC[C@H]5COC)sc34)ccc21
10.00

Param item: COC[C@@H]1CCCN1C(=O)c1cc2nccc(Nc3ccc4c(c3)cc(C)n4C(=O)NC3CC3)c2s1
9.25

###

# Assayed target: unphosphorylated VEGF-R2Δ50 (FLVK) (Homo sapiens, UniProt P35968, DEL940-989/E990V)
# Construct: VEGF-R2Δ50 contains residues 806-939 and 990-1171
# Assay overview: VEGF-R2 coupled spectrophotometric assay, unphosphorylated construct (FLVK)
Parameter measured: Ki (nM)
Your answer is read as nM, so omit the unit and give the number.

// query Ki value for entry C#CCNC(=O)n1c(C)cc2cc(Nc3ccnc4cc(C(=O)N5CC[C@@H](O)C5)sc34)ccc21
0.37

Param item: CNC(=O)n1c(C)cc2cc(Nc3ccnc4cc(C(=O)N5C[C@H](O)C[C@H]5C(C)(C)O)sc34)ccc21
1.11

Param item: Cc1cc2cc(Nc3ccnc4cc(C(=O)N5CCC[C@H]5CO)sc34)ccc2n1C(=O)NC1CC1
0.16

Param item: CNC(=O)n1c(C)cc2cc(Oc3ccnc4cc(C(=O)N5CC[C@H](O)C5)sc34)ccc21
0.243

###

molecules and their reported Mouse Cmin, po
# Assay overview: Mouse PK assay
# Format: in vivo, B6 female mice
# Measurement setup: po
Your answer is read as ng/mL, so omit the unit and give the number.

Example entries begin here.
C#CCNC(=O)n1c(C)cc2cc(Nc3ccnc4cc(C(=O)N5CC[C@@H](OC)C5)sc34)ccc21: 34
CNC(=O)n1c(C)cc2cc(Nc3ccnc4cc(C(=O)N5CCC[C@@H]5COC)sc34)ccc21: 5
COC[C@@H]1CCCN1C(=O)c1cc2nccc(Nc3ccc4c(c3)cc(C)n4C(=O)NC3CC3)c2s1: 35
CO[C@@H]1C[C@@H](CO)N(C(=O)c2cc3cccc(Nc4ccc5c(c4)cc(C)n5C(=O)NC4CC4)c3s2)C1: 2
C#CCNC(=O)n1c(C)c(Cl)c2c(F)c(Oc3ccnc4cc(C(=O)N5CC[C@H](O)C5)sc34)ccc21: 125
CNC(=O)n1c(C)cc2cc(Nc3ccnc4cc(-c5nccn5C)sc34)ccc21: 19

Please examine the following record next.
// query Mouse Cmin, po value for entry Cc1cc2cc(Nc3ccnc4cc(C(=O)N5CCC[C@@H]5CO)sc34)ccc2n1C(=O)NC1CC1
7

Data provenance is patent US6833456B2.
